- Test system: RWP1 cells
- Protocol Details: Effect of anti-FZD5 Fabs on proliferation of pancreatic cancer cell lines (percent growth inhibition)
- Format: cell-based, human
- Condition Context: Fab 10 μg/ml
percent growth inhibition, RWP1 10 μg/ml listing for selected molecules.
# include the unit after the value

// query Item under review: Fab-2930: anti-FZD5 Fab with antibody variable region Fv-2930; CDR SEQ ID NOs: 35, 36, 69, 107, 145, 153 (antibody, V domains shown) VH: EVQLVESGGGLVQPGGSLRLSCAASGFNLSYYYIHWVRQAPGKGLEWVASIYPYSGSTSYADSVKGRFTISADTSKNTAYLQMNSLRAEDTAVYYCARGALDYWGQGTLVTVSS VL: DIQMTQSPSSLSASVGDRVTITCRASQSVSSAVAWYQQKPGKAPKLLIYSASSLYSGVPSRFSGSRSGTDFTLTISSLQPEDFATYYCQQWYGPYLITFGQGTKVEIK . Reported percent growth inhibition, RWP1 10 μg/ml?
// result 10.72%

We next turn to a different molecule, shown below.
// query Item under review: Fab-2924: anti-FZD5 Fab with antibody variable region Fv-2924; CDR SEQ ID NOs: 35, 36, 63, 101, 139, 153 (antibody, V domains shown) VH: EVQLVESGGGLVQPGGSLRLSCAASGFNISYSYIHWVRQAPGKGLEWVASIYSYYSSTSYADSVKGRFTISADTSKNTAYLQMNSLRAEDTAVYYCARGALDYWGQGTLVTVSS VL: DIQMTQSPSSLSASVGDRVTITCRASQSVSSAVAWYQQKPGKAPKLLIYSASSLYSGVPSRFSGSRSGTDFTLTISSLQPEDFATYYCQQWYSGHSLITFGQGTKVEIK . Reported percent growth inhibition, RWP1 10 μg/ml?
// result 48.95%
